# assay-notes: activity coefficient (dimensionless); of the first substance listed, at infinite dilution; xn = mol fraction of the nth substance listed
# condition-description: 308.15 K; Liquid; x1 = 0
outcome-measure: activity coefficient

molecule: CCCCCCC [heptane] + CCCCCCCCCCCCCC[P+](CCCCCC)(CCCCCC)CCCCCC.FC(F)(F)C(F)(F)[P-](F)(F)(F)(C(F)(F)C(F)(F)F)C(F)(F)C(F)(F)F
outcome-measure: activity coefficient
experimental-value: 0.74
//
molecule: C#CCCCC [1-hexyne] + CCCCCCCCCCCCCC[P+](CCCCCC)(CCCCCC)CCCCCC.FC(F)(F)C(F)(F)[P-](F)(F)(F)(C(F)(F)C(F)(F)F)C(F)(F)C(F)(F)F
outcome-measure: activity coefficient
experimental-value: 0.42
//
molecule: C1CCCCCC1 [cycloheptane] + CCCCCCCCCCCCCC[P+](CCCCCC)(CCCCCC)CCCCCC.FC(F)(F)C(F)(F)[P-](F)(F)(F)(C(F)(F)C(F)(F)F)C(F)(F)C(F)(F)F
outcome-measure: activity coefficient
experimental-value: 0.54
